Here the recorded IC50 is given for each entry.
- measuredOn: BRD4 BD2 (Homo sapiens (Human), UniProt O60885)
- assayName: TR-FRET bromodomain binding assay
The figure you give is taken to be in nM; do not add the unit.

COC(=O)[C@@H]1CCCN1S(=O)(=O)c1ccc(NC(=O)Nc2ccc(C(F)(F)F)cc2)cc1 | 142

### Prompt Data request, read-out IC50, for COc1cc(OC)c2c(=O)cc(-c3cc(C)c(OCCO)c(C)c3)oc2c1
### Response 135

### Prompt Data request, read-out IC50, for O=C(Nc1ccc(C(F)(F)F)cc1)Nc1ccc(S(=O)(=O)N2CCC[C@H]2CN2CCC(O)CC2)cc1
### Response 1170

### Prompt Data request, read-out IC50, for Cc1cc(/N=N/c2ccc3c(c2)CCC(=O)N3)c(N)cc1O
### Response 32
